tested on: BT-549; assay: NCI-60 anticancer screen (SRB; single dose and five doses); conditions: Homo sapiens, BT-549, 48 h, read-out: Growth Percentage
Tag: Y if measured activity at 10 µM is not below 70%, N if it is.

INSERT INTO assay_data (compound, assayed_target, cat) VALUES
  ('Cc1[nH]c(=S)sc1C(=O)/C=C/c1ccc(F)cc1 [2c]', 'BT-549', 'N'),
  ('Cc1ccc(/C=C/C(=O)c2sc(=S)[nH]c2C)cc1 [2j]', 'BT-549', 'N'),
  ('Cc1[nH]c(=S)sc1C(=O)/C=C/c1ccc([N+](=O)[O-])cc1 [2i]', 'BT-549', 'N'),
  ('COc1ccc(/C=C/C(=O)c2sc(=S)[nH]c2C)cc1 [2l]', 'BT-549', 'Y');
